Molecular target: Cannabinoid receptor 1 (Homo sapiens)
Sequence (P21554 whole entry): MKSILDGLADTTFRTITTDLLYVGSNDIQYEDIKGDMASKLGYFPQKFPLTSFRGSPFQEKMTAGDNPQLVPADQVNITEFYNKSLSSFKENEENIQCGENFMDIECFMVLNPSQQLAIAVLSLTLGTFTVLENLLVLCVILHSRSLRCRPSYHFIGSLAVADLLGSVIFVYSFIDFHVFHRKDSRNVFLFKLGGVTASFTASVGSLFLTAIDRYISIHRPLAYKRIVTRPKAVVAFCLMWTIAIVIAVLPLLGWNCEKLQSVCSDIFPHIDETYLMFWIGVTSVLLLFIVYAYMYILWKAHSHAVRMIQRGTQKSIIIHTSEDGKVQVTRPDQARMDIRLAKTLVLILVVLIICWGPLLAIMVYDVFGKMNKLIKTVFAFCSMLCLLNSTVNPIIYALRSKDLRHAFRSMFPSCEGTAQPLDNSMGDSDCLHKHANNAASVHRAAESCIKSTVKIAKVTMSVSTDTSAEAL
Assay: Binding affinity to human CB1 receptor
Category | rule: reported Ki within range, see bucket A (below 600 nM), bucket B (600 nM to below 2000 nM), bucket C (2000 nM or more)

Prompt line: Category of CCS(=O)(=O)n1c2c(c3cc(C(=O)N4CCOCC4)ccc31)CN(C1CCCC1)C2 :
Response line: bucket C

Prompt line: Category of CC1CCN(C(=O)c2ccc3[nH]c4c(c3c2)CN(C2CCCC2)C4)CC1 :
Response line: bucket C

Prompt line: Category of CC1CCN(C(=O)c2ccc3c(c2)c2c(n3S(=O)(=O)c3ccccc3)CN(C3CCCC3)C2)CC1 :
Response line: bucket A

Prompt line: Category of CCS(=O)(=O)n1c2c(c3cc(C(=O)N(C)C(C)C)ccc31)CN(C1CCCC1)C2 :
Response line: bucket C

Prompt line: Category of CC1CCN(C(=O)c2ccc3c(c2)c2c(n3Cc3ccccc3)CN(C3CCCC3)C2)CC1 :
Response line: bucket B

Prompt line: Category of CCCCN1Cc2c(n(S(=O)(=O)CC)c3ccc(C(=O)N4CCC(C)CC4)cc23)C1 :
Response line: bucket A

Prompt line: Category of C=CCN1Cc2c(n(S(=O)(=O)CC)c3ccc(C(=O)N4CCC(C)CC4)cc23)C1 :
Response line: bucket A

Prompt line: Category of CCS(=O)(=O)n1c2c(c3cc(C(=O)N4CCC(C)CC4)ccc31)CN(C1CCCCO1)C2 (stereo not drawn) :
Response line: bucket C

Prompt line: Category of CCS(=O)(=O)n1c2c(c3cc(C(=O)N4CCC(C)CC4)ccc31)CN(C1CCOCC1)C2 :
Response line: bucket C

Prompt line: Category of CCS(=O)(=O)n1c2c(c3cc(C(=O)N4CCC(C)CC4)ccc31)CN(C1CCOC1)C2 (stereo not drawn) :
Response line: bucket B

Prompt line: Category of CCS(=O)(=O)n1c2c(c3cc(C(=O)N4CCC(F)CC4)ccc31)CN(C1CCCC1)C2 :
Response line: bucket C

Prompt line: Category of CCS(=O)(=O)n1c2c(c3cc(C(=O)N4CCCCC4)ccc31)CN(C1CCCC1)C2 :
Response line: bucket B

Prompt line: Category of CCS(=O)(=O)n1c2c(c3cc(C(=O)N4CCC(OC)CC4)ccc31)CN(C1CCCC1)C2 :
Response line: bucket C

Prompt line: Category of CC(=O)n1c2c(c3cc(C(=O)N4CCC(C)CC4)ccc31)CN(C1CCCC1)C2 :
Response line: bucket C

Prompt line: Category of CCCCN(C)C(=O)c1ccc2c(c1)c1c(n2S(=O)(=O)CC)CN(C2CCCC2)C1 :
Response line: bucket B

Prompt line: Category of CC1CCN(C(=O)c2ccc3c(c2)c2c(n3S(=O)(=O)C3CC3)CN(C3CCCC3)C2)CC1 :
Response line: bucket A

Prompt line: Category of CCS(=O)(=O)n1c2c(c3cc(C(=O)N4CCC(C)CC4)ccc31)CN(C(C)C)C2 :
Response line: bucket A
